TEST SYSTEM: Apelin receptor (Homo sapiens)
TEST DETAILS: apelin receptor activator analogs – cell-based, luminescence, set 2, SAR follow-up (AID 488985)
MEASUREMENT CONDITIONS: CHO-K1 AGTRL-1 PathHunter beta-arrestin
The source made the active and inactive calls.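 The calls were made as follows: active = mean EC50 below 10 µM; inactive = the rest.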
Classes to choose from: class 1 for active, class 0 for inactive

Examples from the recorded data:
INSERT INTO measurements (query_smiles, label_value) VALUES
  ('CCc1nnc(NC(=O)CSc2nc3cccnc3n2C2CCCCC2)s1', 'class 0'),
  ('Cc1cc(C)n2nc3nc(N4CCCCC4)nc(-c4ccccc4)c3c2n1', 'class 0'),
  ('CCN1C(=O)/C(=C/C=C2/SC(c3ccccc3)=C(c3ccccc3)N2CC)SC1=S', 'class 0');

Record request — test call for `CC1=C/C(=N/OS(=O)(=O)c2ccccc2)C(C(C)C)=CC1=O`
class 1

Test call, this compound: `CCCCN(C)CCn1c(=S)[nH]c2cc(OCC)c(OCC)cc2c1=O`
class 0

Look up the recorded call for `CCOc1cc2[nH]c(=S)n(CCCC(=O)NCc3ccccn3)c(=O)c2cc1OCC` in this test.
class 0

----------
TEST SYSTEM: UniProt:P35414
Sequence (P35414 whole entry, looked up): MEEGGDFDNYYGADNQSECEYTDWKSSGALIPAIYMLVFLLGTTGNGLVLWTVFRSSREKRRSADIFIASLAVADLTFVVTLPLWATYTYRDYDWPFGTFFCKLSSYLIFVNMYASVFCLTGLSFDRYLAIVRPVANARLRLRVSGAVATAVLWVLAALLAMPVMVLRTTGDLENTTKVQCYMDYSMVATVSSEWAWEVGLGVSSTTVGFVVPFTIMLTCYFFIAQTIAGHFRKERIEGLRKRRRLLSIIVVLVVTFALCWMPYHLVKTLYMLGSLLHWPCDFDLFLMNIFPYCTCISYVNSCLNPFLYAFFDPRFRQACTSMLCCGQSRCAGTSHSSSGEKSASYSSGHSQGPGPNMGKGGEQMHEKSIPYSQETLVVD
TEST DETAILS: apelin receptor activator analogs – cell-based, luminescence, set 2, SAR follow-up (AID 488985)
MEASUREMENT CONDITIONS: CHO-K1 AGTRL-1 PathHunter beta-arrestin
Calls of active or inactive are those of the source.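 The calls were made as follows: active = mean EC50 below 10 µM; inactive = the rest.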
// classify into active, inactive

INSERT INTO assay_data (compound, label_value) VALUES
  ('CCOc1cc2[nH]c(=S)n(CCN3CCCCC3CC)c(=O)c2cc1OCC (stereo unspecified)', 'inactive'),
  ('CCOc1cc2[nH]c(=S)n(CCN3CCC(C)CC3)c(=O)c2cc1OCC', 'inactive'),
  ('CC1=CC(=NOS(=O)(=O)c2ccccc2)C(C)=CC1=O', 'active');

Now for a further compound.
Status in this test for `CCOc1ccc(S(=O)(=O)Nc2nc(-c3ccccc3)cs2)cc1` ?
inactive

----------
TEST SYSTEM: Apelin receptor (Homo sapiens)
TEST DETAILS: apelin receptor activator analogs – cell-based, luminescence, set 2, SAR follow-up (AID 488985)
MEASUREMENT CONDITIONS: CHO-K1 AGTRL-1 PathHunter beta-arrestin
Activity calls are given as the source filed them.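 Rule for the calls: active = mean EC50 below 10 µM; inactive = the rest.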
Pick from active, inactive when you respond.

Below are worked cases with known answers.
INSERT INTO results (query_smiles, label_value) VALUES
  ('CC1=CC(=O)C(C(C)(C)C)=C/C1=N/OS(=O)(=O)c1ccccc1', 'active'),
  ('CCN1C(=O)/C(=C/C=C2/Sc3ccccc3N2CC)SC1=S', 'inactive'),
  ('CC1=CC(=O)C=C/C1=N/OS(=O)(=O)c1ccc(C)cc1', 'inactive'),
  ('Cc1cc(O)c(C2CCCCC2)cc1N=O', 'inactive'),
  ('CCc1nnc(NC(=O)CSc2nc3cccnc3n2Cc2ccccc2)s1', 'inactive'),
  ('CC(C)C1=CC(=NOS(=O)(=O)c2ccccc2)C=C(C(C)C)C1=O', 'active');

Switching to the query record.
Give the logged outcome of this assay for the following compound: `CCN1C(c2ccccc2)=C(c2ccccc2)S/C1=C\C=C1/SC(=S)N(C)C1=O`
active
